# assay_info: soluble fraction after stress (log2 fold change); higher = more stays soluble; pooled small domains, quantitative proteomics
# measurement_setup: stress: pH 4
Outcome label depends on soluble fraction (log2) relative to -0.7: at/above gives Criterion met, below gives Criterion not met.

record_sequence=HMDRESFIKLGRELARSAFAHVGQKSTEKALETAADVLRLKDPNEVLARLGSAELTGRQVVQAIYPELI label="Criterion met"

Hi, just wondering whether "HMNLNIGNNIKNIRKSKNMTQTDFAELMGLSRSYIGDLENNRSNPSIKTLEAIARALDVPIVALIN" shows soluble fraction (log2) of -0.7 or higher.
Criterion not met

Hi, just wondering whether "HMANYYEILGVKHDATEAEIKAAYKQAAKSAHPDAGGSNEKMQEVNAAWEVLGNAQKRAEYDARMA" shows soluble fraction (log2) of -0.7 or higher.
Criterion met

Decide: is the reported value of soluble fraction (log2) for "HMFDFMVLGQAIKKARESKEMTREQLAEILDVAPRHIQSIENEGQYPSFPLFIRLVTMFNISVDQY" equal to or greater than -0.7?
Criterion not met

---

# assay_info: soluble fraction after stress (log2 fold change); higher = more stays soluble; pooled small domains, quantitative proteomics
# measurement_setup: stress: pH 4
Could you please report measured soluble fraction (log2) for the items listed next?
Give bare numbers.

Would you please look over these solved cases?
record_sequence=HMSYSYIYNYALKVKMDISSTGGKKPYAYYYYDHSYKLAEEILSLSEETESIELQNKYDELKDFYENP metric_name="soluble fraction (log2)" measured_value=-1.04
record_sequence=HMDLTKLFDHDSEYGKSYVFGKITDEMIARAEQTLGYRMPASYIELLKVQNGGMISDELDESWLTTIYGIG metric_name="soluble fraction (log2)" measured_value=-0.932
record_sequence=HMQTTPAGHELLIRYFANGNIRERGMMKDGKRNGIWIFYDESGMEIRKTKYKMGKIISDYDLN metric_name="soluble fraction (log2)" measured_value=0.0593
record_sequence=HMNNKVAVKSGYYFELFDKDEIPATLEKMKQKVKIDNIKYDLYQGTSLEDERKIDTMFGEKMGYSIDDYI metric_name="soluble fraction (log2)" measured_value=-0.527
record_sequence=HMQISDSSLIAKTVATVILENPEAVSDYLGGKHSVVRFMVGQIMKKTQGKANPKMATEMLETALNDL metric_name="soluble fraction (log2)" measured_value=0.352

Give one value of soluble fraction (log2) per listed sequence.
1. HMGETAFRYALPLDQGEALKRSHVIRQSISPDDALATRVTVLEDVLDQTLRQPVQAGEVLLEDHFTR
2. HMGDTLEIVVIYSNKQKAEEAVNNLKGKFEDLGYNFAIITVDTSKITQLAMESSIQYIEFPKSFYFSD
3. HMLTPSRVLPYLFEDSFFIDTLSLEKDQVVGFLEYIDERLPPQDLMNKSKEFELIDYLINESEAYLSQ

1: -0.682; 2: -1.29; 3: -0.311

For each entry beneath this line, provide reported soluble fraction (log2).
1. HMDLSQTVQAKALARVNVREGAGTHFKSLGKLKKGELLPVFRVGNSWASIWWKGRVAYVHTDYLRFESA
2. HMARLQEVVVRVPVEDGQTLAAIYREAEVIERADEGTGVLLTVRIPAPLLGRLRRLEGVHVQP
3. HMLGRPDMSPIPEGSRNNDLHAWGFGRLANHPDNKRQIEADFFERGRISGLGDAEIRASWNSILRQLGHQ
4. HMPELSITDADIIVAGGRGMGSAENFGLIRELAGLLGAAVGASRVVVDAEWVDQKHLIGQTGK
5. HMQTTQQLIRNLRLKQAATLLADKRHSITEVATLTGFTHPTYFATAFREMFGVSPSEYMEQHI

[-0.153, -0.348, 0.276, -0.507, 0.126]
